- assay.explanation: qHTS RealTime-Glo MT Cell Viability Assay in HEK293 cells - 32 hour (AID 1224868); further: top concentration of the series differs between compounds; nearly all actives have a fitted effect of over 50% in size
- experimental.conditions: RealTime-Glo luminescence; series mostly up to 76.8 µM
Inconclusive results are not listed. Active and inactive are the calls of the source. The call rests on the fitted dose curve; in most records, active means well fitted cell-killing curve with a large enough effect in the repeat runs; inconclusive means weak or mixed curves, or effect the other way; inactive means flat fitted curve, though single readings scatter.
metric: Potency

[
  {
    "compound": "CCSC(=O)Cl",
    "Potency": "inactive"
  },
  {
    "compound": "CCCCCCC1CCOC1=O (stereo unspecified)",
    "Potency": "inactive"
  },
  {
    "compound": "CCN1CCCC1CNC(=O)C(O)(c1ccccc1)c1ccccc1 (stereo unspecified)",
    "Potency": "inactive"
  },
  {
    "compound": "C=C(Cl)CSC(=S)N(CC)CC",
    "Potency": "inactive"
  },
  {
    "compound": "CCCC[N+](=O)[O-]",
    "Potency": "inactive"
  }
]

Let's switch to this compound now.
Specify measured Potency for O=C(NC(O)C(Cl)(Cl)Cl)NC(O)C(Cl)(Cl)Cl (stereo unspecified) .
inactive
